experiment: Cell Viability - N2a (AID 540); settings: N2a mouse neuroblastoma cell viability; at 92.2 µM (top of the series);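 further: cells exposed to compound for 40 h at 37 °C; plate controls were DMSO alone for no effect and tamoxifen control for full effect; nearly all actives have a fitted effect of over 45% in size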
Records with an inconclusive call do not appear. Active and inactive are the calls of the source. The call rests on the fitted dose curve; in most records, active means well fitted cell-killing curve with a large enough effect; inconclusive means small, poorly fitted or top-dose-only effect; inactive means flat fitted curve, though single readings scatter.
Would you mind answering with one of these outcomes? label 1 for active, label 0 for inactive

These recorded examples may help you get a feel for the data.
c1ccc2c(c1)Nc1ccccc1S2; label 0
CNCC(O)c1ccc(O)cc1 (configuration not stated); label 0
Oc1cccc2cccnc12; label 1
Clc1ccc(COC(Cn2ccnc2)c2ccc(Cl)cc2Cl)cc1 (configuration not stated); label 1

Record lookup: outcome of this test for NCC(O)c1ccc(O)cc1 (configuration not stated) ?
label 0

Thanks! And OCCOc1ccccc1 ?
label 0

Thanks! And Oc1ccccc1-c1ccccc1 ?
label 0

====

biological target: Protein phosphatase 1D (Homo sapiens); test: RapidFire Mass Spectrometry qHTS Assay for Modulators of WT P53-Induced Phosphatase 1 (WIP1) (AID 1347424); settings: WIP1 dephosphorylation of phosphopeptide, RapidFire MS; series mostly up to 63 µM;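 further: amount of dephosphorylated VEPPL-S-QETFS peptide product formed by WIP1; plate controls were DMSO wells for no effect and GSK830371 inhibitor control at 10 µM for full effect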
Records with an inconclusive call do not appear. Active and inactive are the calls of the source. Calls follow the shape of the dose curve; as a rule, active = well fitted inhibition curve with a large enough effect; inconclusive = small, poorly fitted or top-dose-only effect; inactive = no such curve, though single readings can be large or run the other way.
Reported property: outcome

Clc1cccc(N2CCNCC2)c1; inactive
CCC1(C2=NCCN2)Cc2ccccc2O1 (stereo not drawn); inactive
C=C1C[C@@H]2[C@H](CC[C@]3(C)C(=O)CC[C@@H]23)[C@@]2(C)C=CC(=O)C=C12; inactive
Cn1cc(C2=C(c3cn(C4CCN(Cc5ccccn5)CC4)c4ccccc34)C(=O)NC2=O)c2ccccc21; inactive
CCC(C(N)=O)N1CCCC1=O (stereo not drawn); inactive
CC[C@@H](CO)NC(=O)[C@@H]1C=C2c3cccc4[nH]cc(c34)C[C@H]2N(C)C1; inactive
Nc1ccncc1; inactive
O=c1[nH]c2ccccc2n1C1CCN(CCCC(c2ccc(F)cc2)c2ccc(F)cc2)CC1; inactive

Hey, quick one: what's outcome for each of these?
1. CNCC(O)c1ccc(O)cc1 (stereo not drawn)
2. NCC1(CC(=O)O)CCCCC1
3. NN=C(N)N
4. Clc1ccc(CCC(Cn2ccnc2)Sc2c(Cl)cccc2Cl)cc1 (stereo not drawn)
5. O=C(NC(O)C(Cl)(Cl)Cl)NC(O)C(Cl)(Cl)Cl (stereo not drawn)

["inactive", "inactive", "inactive", "inactive", "inactive"]

====

molecular target: Glutaminase kidney isoform, mitochondrial (Homo sapiens) (UniProt O94925); test: qHTS for Inhibitors of Glutaminase (GLS): LOPAC Validation (AID 624146); details: glutaminase enzyme activity inhibition; series mostly up to 46.1 µM; further: nearly all actives have a fitted effect of over 60% in size
Sequence (O94925 whole entry, looked up, canonical isoform): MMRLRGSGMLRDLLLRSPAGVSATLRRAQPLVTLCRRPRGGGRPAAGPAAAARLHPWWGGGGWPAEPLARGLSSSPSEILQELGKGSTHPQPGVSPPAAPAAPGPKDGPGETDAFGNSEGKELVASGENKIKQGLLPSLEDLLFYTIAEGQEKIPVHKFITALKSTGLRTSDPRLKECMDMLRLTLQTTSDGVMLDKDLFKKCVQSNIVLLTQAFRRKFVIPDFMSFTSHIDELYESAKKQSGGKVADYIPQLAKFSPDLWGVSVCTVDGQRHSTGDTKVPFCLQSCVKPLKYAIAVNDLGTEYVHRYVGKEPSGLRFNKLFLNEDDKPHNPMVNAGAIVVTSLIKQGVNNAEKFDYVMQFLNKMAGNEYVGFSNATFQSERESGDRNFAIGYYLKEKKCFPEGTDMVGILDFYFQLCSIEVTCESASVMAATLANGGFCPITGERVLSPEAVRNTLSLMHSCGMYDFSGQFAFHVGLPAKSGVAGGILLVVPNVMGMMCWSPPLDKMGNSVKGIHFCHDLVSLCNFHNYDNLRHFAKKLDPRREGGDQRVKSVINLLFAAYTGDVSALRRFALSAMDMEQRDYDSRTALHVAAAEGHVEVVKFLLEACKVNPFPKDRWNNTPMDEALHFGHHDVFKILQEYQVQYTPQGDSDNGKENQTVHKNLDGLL
Inconclusive results are not listed. The source made the active and inactive calls. Calls come from the whole dose curve; as a rule, active = well fitted inhibition curve with a large enough effect; inconclusive = small, poorly fitted or top-dose-only effect; inactive = no such curve, though single readings can be large or run the other way.
Would you mind answering with one of these outcomes? Y for active, N for inactive

These recorded examples may help you get a feel for the data.
CCCC(C)(COC(N)=O)COC(=O)NC(C)C (stereo not given); N
COc1ccccc1N1CCNCC1; N
CC(=O)[C@H]1CC[C@H]2[C@@H]3CC[C@H]4C[C@](C)(O)CC[C@]4(C)[C@H]3CC[C@]12C; N
CC(=O)[C@H]1CC[C@H]2[C@@H]3CC[C@H]4C[C@H](O)CC[C@]4(C)[C@H]3C(=O)C[C@]12C; N
N#CC(C#N)=Cc1ccc(O)c(O)c1; Y

Record lookup: outcome of this test for CC(O)(CS(=O)(=O)c1ccc(F)cc1)C(=O)Nc1ccc(C#N)c(C(F)(F)F)c1 (stereo not given) ?
N

Thanks! And c1ccc2c(c1)OCC(C1=NCCN1)O2 (stereo not given) ?
N

Thanks! And NCC(CC(=O)O)c1ccc(Cl)cc1 (stereo not given) ?
N

Thanks! And NCC1(CC(=O)O)CCCCC1 ?
N

Thanks! And C[C@@H]1O[C@@H](O[C@H]2C[C@@H](O)[C@]3(CO)[C@H]4[C@H](O)C[C@]5(C)[C@@H](C6=CC(=O)OC6)CC[C@]5(O)[C@@H]4CC[C@]3(O)C2)[C@H](O)[C@H](O)[C@H]1O ?
N

Thanks! And NCC(O)c1ccc(O)cc1 (stereo not given) ?
N

Thanks! And Nc1ccncc1 ?
N

Thanks! And Cc1cccc(C)c1NC(=O)CN1CCCC1=O ?
N

Thanks! And O=C1NCN(c2ccccc2)C12CCN(CC1COc3ccccc3O1)CC2 (stereo not given) ?
N

Thanks! And CCCN1CCC[C@@H]2Cc3[nH]ncc3C[C@H]21 ?
N

====

assay: Cell Proliferation Assay against the TMD8 Cell Line (AID 651645); conditions: TMD8 DLBCL cell line proliferation/viability; at 46.1 µM (top of the series);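 further: cells exposed to compound for 48 h before reading; 100% = DMSO and 0% = 9.2 µM bortezomib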
Rule: viability (% of control) below 80% gives Criterion met, anything at or above gives Criterion not met.

Cn1c(CCCC(=O)O)nc2cc(N(CCCl)CCCl)ccc21; Criterion not met

Please check: viability (% of control) for COc1ccc(C(=O)c2c(C)n(CCN3CCOCC3)c3ccccc23)cc1 , strictly under 80% or not?
Criterion met

Thanks! And CNC(=O)N1N=C(c2ccc(N)cc2)c2cc3c(cc2CC1C)OCO3 (stereo unspecified) ?
Criterion met

Thanks! And C[C@@H]1[C@@H](C(=O)C[C@H]2O[C@@H]3O[C@]4(C)CC[C@@H]5[C@H](C)CC[C@@H]([C@H]2C)[C@@]35OO4)O[C@@H]2O[C@]3(C)CC[C@H]4[C@H](C)CC[C@@H]1[C@@]24OO3 ?
Criterion met

Thanks! And O=C(O)C(=O)c1cn(Cc2ccccc2)c2ccc(-c3ccc(OC(F)(F)F)cc3)cc12 ?
Criterion met

Thanks! And CC(C)n1c(C=C[C@H](O)C[C@H](O)CC(=O)O)c(-c2ccc(F)cc2)c2ccccc21 ?
Criterion not met

Thanks! And CC(O)(CS(=O)(=O)c1ccc(F)cc1)C(=O)Nc1ccc(C#N)c(C(F)(F)F)c1 (stereo unspecified) ?
Criterion not met

Thanks! And CNC(=O)c1ccc(N2C(=S)N(c3ccc(C#N)c(C(F)(F)F)c3)C(=O)C23CCC3)cc1F ?
Criterion met

Thanks! And COC[C@H]1OC(=O)c2coc3c2[C@@]1(C)C1=C(C3=O)C2CCC(=O)[C@@]2(C)C[C@H]1OC(C)=O (stereo partly specified) ?
Criterion met

====

assay: Cell Viability - LYMP2-019 (AID 973); details: LYMP2-019 lymphoblastoid cell line viability; series mostly up to 92.2 µM;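 further: cells exposed to compound for 24 h at 37 °C; nearly all actives have a fitted effect of over 55% in size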
Inconclusive results are not listed. Activity calls are given as the source filed them. Calls come from the whole dose curve; as a rule, active = well fitted cell-killing curve with a large enough effect; inconclusive = small, poorly fitted or top-dose-only effect; inactive = flat fitted curve, though single readings scatter.
Would you mind answering with one of these outcomes? true for active, false for inactive

These recorded examples may help you get a feel for the data.
OCCOc1ccccc1; false
Oc1cccc2cccnc12; true

Record lookup: outcome of this test for CNCC(O)c1ccc(O)cc1 (configuration not stated) ?
false

Thanks! And Oc1ccccc1-c1ccccc1 ?
false

Thanks! And CC(=O)Oc1ccccc1C(=O)Nc1ncc([N+](=O)[O-])s1 ?
true

Thanks! And c1ccc2c(c1)Nc1ccccc1S2 ?
false

Thanks! And NCC(O)c1ccc(O)cc1 (configuration not stated) ?
false

====

assay: qHTS profiling of the MIPE4 collection as inhibitors of Plasmodium falciparum (DD2) proliferation (Rep 2) (AID 743346); conditions: P. falciparum Dd2 in erythrocytes, SYBR Green DNA, 72 h; at 28.5 µM (top of the series) unless noted
Reported property: parasite growth, % of control (lower = inhibition) (%)
Answers are plain numbers, in %.

Cc1ccnc2c1NC(=O)c1cccnc1N2C1CC1; 83.7
Cc1cc2c(s1)Nc1ccccc1N=C2N1CCN(C)CC1; 49.7
NCC1(CC(=O)O)CCCCC1; 75.9
CC1=C2C[C@@H]3[C@@H](CC=C4C[C@@H](O)CC[C@@]43C)[C@@H]2CC[C@]12O[C@H]1C[C@H](C)CN[C@H]1[C@H]2C; 33.5
COC1(CS(=O)c2ccccc2)CCN(CCc2c[nH]c3ccc(F)cc23)CC1 (stereo unspecified); 66.8

Next:
Entry CN(C)[C@@H]1C(=O)C(C(N)=O)=C(O)[C@@]2(O)C(=O)C3=C(O)c4c(O)cccc4[C@@](C)(O)[C@H]3C[C@@H]12 : reported parasite growth, % of control (lower = inhibition) = ?
30.2

====

assay: Cytotoxicity counterscreen for inhibitors of SARS-CoV-2 cell entry (AID 1645845); details: cell viability (SARS-CoV-2 entry assay cells); series mostly up to 57.1 µM; further: nearly all actives have a fitted effect of over 50% in size
Records with an inconclusive call do not appear. Activity calls are given as the source filed them. The call rests on the fitted dose curve.
Reported property: outcome

The cases that follow already have their outcome on record.
Nc1nc2c(ncn2COC(CO)CO)c(=O)[nH]1; inactive
CCC1(c2ccccc2)C(=O)NCNC1=O; inactive
O=C(O)CCCc1ccccc1; inactive
Cc1ccccc1N1C(=O)c2cc(S(N)(=O)=O)c(Cl)cc2NC1C (stereo not given); inactive

Entry CC[C@]1(O)C[C@@H]2CN(CCc3c([nH]c4ccccc34)[C@@](C(=O)OC)(c3cc4c(cc3OC)N(C)[C@H]3[C@@](O)(C(=O)OC)[C@H](OC(C)=O)[C@]5(CC)C=CCN6CC[C@]43[C@@H]65)C2)C1 : reported outcome = ?
inactive
